- Tested on: Pseudomonas aeruginosa
- Assay overview: Antibacterial activity against Pseudomonas aeruginosa ATCC 27853 after 24 hrs by broth dilution method
- Assay type: functional
- Measurement parameters: ATCC 27853, 24 h

Compound	Unit symbol	MIC
O=C(Cc1ccccc1)c1nnc(-c2cc(Br)c(Br)[nH]2)o1	µg/mL	12.5
CCSc1nnc(-c2cc(Br)c(Br)[nH]2)o1	µg/mL	25
COc1ccc(-c2nnc(-c3cc(Br)c(Br)[nH]3)o2)cc1	µg/mL	6.25
Brc1cc(-c2nnc(/C=C/c3ccccc3)o2)[nH]c1Br	µg/mL	6.25
Sc1nnc(-c2cc(Br)c(Br)[nH]2)o1	µg/mL	12.5
COc1cc(/C=C/c2nnc(-c3cc(Br)c(Br)[nH]3)o2)ccc1O	µg/mL	12.5
Brc1cc(-c2nnc(/C=C/C3=COc4ccccc4C3)o2)[nH]c1Br	µg/mL	12.5
O=C(CSc1nnc(-c2cc(Br)c(Br)[nH]2)o1)c1ccccc1	µg/mL	12.5
Brc1cc(-c2nnc(-c3cc(Br)c(Br)[nH]3)o2)[nH]c1Br	µg/mL	6.25
Brc1cc(-c2nnc(Sc3ccccc3)o2)[nH]c1Br	µg/mL	25
O=C(O)c1cn(C2CC2)c2cc(N3CCNCC3)c(F)cc2c1=O [CIPROFLOXACIN]	µg/mL	3.12
Brc1cc(-c2nnc(-c3ccccc3)o2)[nH]c1Br	µg/mL	6.25
CSc1nnc(-c2cc(Br)c(Br)[nH]2)o1	µg/mL	25
Clc1ccc(-c2nnc(-c3cc(Br)c(Br)[nH]3)o2)c(Cl)c1	µg/mL	6.25
Clc1ccc(-c2nnc(-c3cc(Br)c(Br)[nH]3)o2)cc1	µg/mL	6.25
Brc1cc(-c2nnc(-c3ccncc3)o2)[nH]c1Br	µg/mL	12.5
Oc1ccc(-c2nnc(-c3cc(Br)c(Br)[nH]3)o2)cc1	µg/mL	6.25
Oc1ccccc1-c1nnc(-c2cc(Br)c(Br)[nH]2)o1	µg/mL	12.5
Nc1ccc(-c2nnc(-c3cc(Br)c(Br)[nH]3)o2)cc1	µg/mL	6.25
Fc1ccc(Cl)c(-c2nnc(-c3cc(Br)c(Br)[nH]3)o2)c1	µg/mL	6.25
O=[N+]([O-])c1ccc(-c2nnc(-c3cc(Br)c(Br)[nH]3)o2)cc1	µg/mL	6.25

====

MIC values by entry
- Tested on: Staphylococcus aureus
- Assay overview: Antibacterial activity against Staphylococcus aureus ATCC 25923 after 24 hrs by broth dilution method
- Assay type: functional
- Measurement parameters: ATCC 25923, 24 h
Attribute measured: MIC (µg/mL)

Compound smiles	Unit symbol	Numeric readout
Brc1cc(-c2nnc(-c3ccccc3)o2)[nH]c1Br	µg/mL	6.25
O=C(O)c1cn(C2CC2)c2cc(N3CCNCC3)c(F)cc2c1=O	µg/mL	1.56
O=C(Cc1ccccc1)c1nnc(-c2cc(Br)c(Br)[nH]2)o1	µg/mL	3.12
Sc1nnc(-c2cc(Br)c(Br)[nH]2)o1	µg/mL	12.5
Brc1cc(-c2nnc(/C=C/c3ccccc3)o2)[nH]c1Br	µg/mL	3.12
Fc1ccc(Cl)c(-c2nnc(-c3cc(Br)c(Br)[nH]3)o2)c1	µg/mL	1.56

====

- System: Staphylococcus aureus
- Assay overview: Antibacterial activity against Staphylococcus aureus ATCC 25923 after 24 hrs by broth dilution method
- Assay type: functional
- Measurement parameters: ATCC 25923, 24 h
MIC values by entry

Compound smiles	MIC, mg/L
COc1cc(/C=C/c2nnc(-c3cc(Br)c(Br)[nH]3)o2)ccc1O	1.56
Clc1ccc(-c2nnc(-c3cc(Br)c(Br)[nH]3)o2)cc1	1.56
Brc1cc(-c2nnc(/C=C/C3=COc4ccccc4C3)o2)[nH]c1Br	1.56
CCSc1nnc(-c2cc(Br)c(Br)[nH]2)o1	12.5
COc1ccc(-c2nnc(-c3cc(Br)c(Br)[nH]3)o2)cc1	3.12
CSc1nnc(-c2cc(Br)c(Br)[nH]2)o1	12.5
Brc1cc(-c2nnc(-c3cc(Br)c(Br)[nH]3)o2)[nH]c1Br	1.56
Brc1cc(-c2nnc(Sc3ccccc3)o2)[nH]c1Br	12.5
Brc1cc(-c2nnc(-c3ccncc3)o2)[nH]c1Br	1.56
Nc1ccc(-c2nnc(-c3cc(Br)c(Br)[nH]3)o2)cc1	3.12
Oc1ccc(-c2nnc(-c3cc(Br)c(Br)[nH]3)o2)cc1	12.5
O=[N+]([O-])c1ccc(-c2nnc(-c3cc(Br)c(Br)[nH]3)o2)cc1	1.56
Clc1ccc(-c2nnc(-c3cc(Br)c(Br)[nH]3)o2)c(Cl)c1	6.25
Oc1ccccc1-c1nnc(-c2cc(Br)c(Br)[nH]2)o1	1.56
O=C(CSc1nnc(-c2cc(Br)c(Br)[nH]2)o1)c1ccccc1	12.5
